Target: human TMPRSS2 (human, UniProt O15393 1-492)
Sequence (O15393 whole entry): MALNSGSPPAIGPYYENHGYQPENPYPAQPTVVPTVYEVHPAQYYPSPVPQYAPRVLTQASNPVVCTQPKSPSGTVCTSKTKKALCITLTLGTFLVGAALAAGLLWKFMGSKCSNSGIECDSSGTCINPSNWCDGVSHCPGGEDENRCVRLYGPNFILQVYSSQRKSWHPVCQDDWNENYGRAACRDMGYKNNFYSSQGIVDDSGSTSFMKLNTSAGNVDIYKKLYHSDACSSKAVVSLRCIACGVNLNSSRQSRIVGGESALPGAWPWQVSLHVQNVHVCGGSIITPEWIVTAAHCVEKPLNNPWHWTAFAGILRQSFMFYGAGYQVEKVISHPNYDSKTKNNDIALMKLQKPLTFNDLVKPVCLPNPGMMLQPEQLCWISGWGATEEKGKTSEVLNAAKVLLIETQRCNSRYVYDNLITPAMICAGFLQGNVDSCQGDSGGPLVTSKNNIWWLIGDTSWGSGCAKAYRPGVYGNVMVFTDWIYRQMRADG
Experiment: cell-based or functional assay
Positions of bridges follow the written chain, without caps; N, C: chain ends. Non-standard residues stand in square brackets, D forms with d. No end group written: not given here. kbt = C-terminal Arg ketobenzothiazole; kt = C-terminal Arg ketothiazole
Readout Label: Calu-3 EC50
Form field: result (number plus unit)

The examples below pair each entry with its known result.
{"Binder": "Ac-SKLR-{kbt-Val-NH2} [Ac-SKLR kbt V-amide, ZFH7116]", "Calu-3 EC50": "307 nM"}
{"Binder": "Ac-WLFR-kbt [Ac-WLFR-kbt, ZFH7064]", "Calu-3 EC50": "150 nM"}
{"Binder": "Ac-DLKR-kbt (lactam 1-3; not fully specified; printed as Cyclo(DLK)R-kbt; also: N-terminal acetyl described as 6-acetamido) [Cyclo(DLK)R-kbt, VD2173]", "Calu-3 EC50": "104 nM"}
{"Binder": "Ac-Leu-Leu-Arg-kt [Ac-LLR-kt, ZFH6201]", "Calu-3 EC50": "349 nM"}
{"Binder": "Leu-Leu-Arg-{kbt-Val-NH2} (also: N-terminal cap inconsistent in filing (H or Ac)) [H-LLR-kbt V-amide ZFH7182]", "Calu-3 EC50": "2060 nM"}

Documented Calu-3 EC50 of Ac-KQLR-kbt [Ac-KQLR-kbt, ZFH7006] : 78 nM

binder Ac-[dW]-Phe-Arg-kbt [Ac-dWFR-kbt, PK-1-89A1] , Calu-3 EC50 observed: 32 nM

Item: Ac-DMKR-kbt (lactam 1-3; not fully specified; printed as Cyclo(DMK)R-kbt; also: N-terminal acetyl described as 6-acetamido) [Cyclo(DMK)R-kbt, VD3173] | Calu-3 EC50: 119 nM

Sure, the documented Calu-3 EC50 for Ac-DQKR-kbt (lactam 1-3; also: N-terminal acetyl described as 6-acetamido) [Cyclo(DQK)R-kbt, VD3152] is 138 nM
